# Test system: RXRa DBDmut IVT, anti-RXR (DBD mutation: RXRa K156A/R161A, NR concentration 90 nM)
# assay.method.text: PBM binding z-score (relative to random genomic background probes); higher = stronger binding; sequences stand for … in GC…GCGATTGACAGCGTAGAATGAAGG
Entries and their PBM binding z-score
The answer should be a number; do not append a unit.

// below: answered sequences
TCTAGTTGGTCACGGAGGACACACACGACGGGTA
0.501
CGTCAAAGGTCAATGCTAGGTCAGTGAAAGCATT
3.76
GATACAGGGTCGGCTAGAGGCCAGAGTATGGAAA
-0.0719
CCTAGCAGGCCAATCTAGGTCACTCAAGGCTTGA
0.439

# query: PBM binding z-score of entry ATCGAAAGGTCGACGCGGTGAGTATACACCGTTT
1.12

// query: CGTCCAAGGTCATAGGAGGTCAATGAAGACAGAT
3.99

// query: CCTGCTAGGTCATGGTCAGCGAATCTACAGTATG
1.92

// query: GCATATAGGTAATACAAGGTCAAAGTCCGATTGT
1.43

// query: CAAAATAGGTCAAAGGTCAAAGTCGAGCCAACCA
2.84

// query: TGTCAAAGTTCAAAGGTGACGTAAGTATCCACAC
4.5

// query: CGTCCAAGGTCAAAGGTCATTGAAGAGATGACGG
4.24

###

Entries and their PBM binding z-score
# Tested on: LXRa:RXRa (NR concentration 270 nM, RXRa partner concentration 90 nM)
# assay.method.text: PBM binding z-score (relative to random genomic background probes); higher = stronger binding; sequences stand for … in GC…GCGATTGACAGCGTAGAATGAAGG
The answer should be a number; do not append a unit.

ACTTACGGGTCAACGAGGTCATAGCACGCGTATA
6.34
TTACCAAGGTGAACGGTCGTTGATGCACGCCTTG
0.744

Note: attention shifts to another entry.
# query: PBM binding z-score of entry CGTCCAAGGACAATGCTAGGTCAGTGAAAGCATT
0.187

###

# System: PPARg:RXRa DBDmut IVT, anti-RXR (DBD mutation: RXRa K156A/R161A, NR concentration 270 nM, RXRa partner concentration 90 nM)
# assay.method.text: PBM binding z-score (relative to random genomic background probes); higher = stronger binding; sequences stand for … in GC…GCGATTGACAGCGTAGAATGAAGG
Decision: PBM binding z-score >= 5 yields TRUE, all other cases yield FALSE.

CGAACTAGGTCATCCAGGACCGTGAATACATTGA
TRUE
CCAACTAGGTCAAAGGACAGTGAAAGGCGACGTA
TRUE
CGTCCAAGGTCATATGAGGTCAGTGAAGACAGAT
FALSE
CGTCCAAGGTCGAAGGTCAGTGAAGAGATGACGG
FALSE
TACCCTAGGTCATTGGGCCAGTATAGTACGCATC
FALSE
TCTGCTAGGTCAACGATGGTCAGTTAATCTGCTA
FALSE
GCTTAAGGGTCAAAGGTTATAGCATGAATAGAAT
FALSE
CCTACTGGTCCAAGGTCATTGATCAGTCAAAGCA
FALSE
CCTTAGGGGTCACTCCAGGTTATAGCATCGGAGT
FALSE
AGAATGAGGTCATTAAGATCAGGGAATTGCGGTC
TRUE

Is reported PBM binding z-score greater than or equal to 5 here: TAGCCTAGGGCATTCAGGGGCCAGTATAGAAAGC
FALSE

// query: CAAACTAGGTCACGAGAGGTCAAAGTCGAATGAC
TRUE

// query: CAAACCAGGTCAAAGGTCAAAGTCGAGCCAACCA
TRUE

// query: ATCTCTAGGTTAAGATAGTTCAGTGAATGCAAAT
FALSE

// query: CCTAGTGGGCCAAGGTCATTGATCAGTCAAAGCA
FALSE

// query: CGAACGAGGTCACCAGGACAGTGAAGAGGTTGGA
TRUE

// query: CAAACCAGGTCAAGAGGTCAAAGTCCGCTTCCCG
TRUE

// query: AATACAGGGTCATCGTACGCCAGAGTACGCACAG
FALSE

// query: TACCCTAGGTCATTCAGGGGCCAGTATAGAAAGC
FALSE

// query: CCTTACGGGTCACGAGGTTGTAGCACGACGAGCG
FALSE

###

Entries and their PBM binding z-score
# System: RXRa homodimer (NR concentration 180 nM)
# assay.method.text: PBM binding z-score (relative to random genomic background probes); higher = stronger binding; sequences stand for … in GC…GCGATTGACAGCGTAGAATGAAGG
The answer should be a number; do not append a unit.

AGAATGAGGTTACCAAAGTTCAGGGAAACGCTTG
4.3
CGTCCAAGGTCAGCGGGTCAGTGAAAGCGACGTG
4.98
TCTAGTTGGTCTAAGGTCACACACTCGAAATGCG
4.71
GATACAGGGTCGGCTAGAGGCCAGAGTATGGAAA
1.49
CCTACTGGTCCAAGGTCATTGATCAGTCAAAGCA
3.96

Note: attention shifts to another entry.
# query: PBM binding z-score of entry ATATGTAGTTTATCGGGTCATTCAGTTTGCGCAT
2.61

###

# Tested on: LXRa homodimer (NR concentration 270 nM)
# assay.method.text: PBM binding z-score (relative to random genomic background probes); higher = stronger binding; sequences stand for … in GC…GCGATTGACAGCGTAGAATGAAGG
Entries and their PBM binding z-score
The answer should be a number; do not append a unit.

// below: answered sequences
CGAACGAGGTCATGAGTTGATAGCAAATGCCGAT
0.616
TCTAGTAGGTCAAAGGTCACACACTCGAAATGCG
5.52
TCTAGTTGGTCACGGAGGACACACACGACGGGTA
0.465
CGTCAAAGGTCAGCAGGTCAGTGAAAGCGACGTG
2.22
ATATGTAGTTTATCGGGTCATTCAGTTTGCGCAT
3.41
AGCGAAAGGTCGAGGTGAGTATAGAGAAAGGGAA
-0.189

Note: attention shifts to another entry.
# query: PBM binding z-score of entry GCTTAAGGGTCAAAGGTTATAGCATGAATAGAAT
1.93

###

Entries and their PBM binding z-score
# Tested on: PPARg:RXRa 30nM:10nM, anti-RXR (NR concentration 30 nM, RXRa partner concentration 10 nM)
# assay.method.text: PBM binding z-score (relative to random genomic background probes); higher = stronger binding; sequences stand for … in GC…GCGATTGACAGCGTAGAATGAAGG
The answer should be a number; do not append a unit.

// below: answered sequences
CAAACTAGTTCAAGAGGTCAAAGTCCGCTTCCCG
2.85
AGTCAAACTTCAGGACGAGGTAACGTAAAGCACG
0.281
AACGAAAGGTCGAAGGTGAGTATACCCACCCGAA
2.35

Look up PBM binding z-score with PPARg:RXRa 30nM:10nM, anti-RXR (NR concentration 30 nM, RXRa partner concentration 10 nM) for this sequence: TCTTGTAGGTCAATAGAGGTTAAGAAAGTGCGCT
4.32

// query: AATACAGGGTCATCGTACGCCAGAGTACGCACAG
2.92

// query: GCTTACGGGTCCAAGGTTATAGCATGAATAGAAT
1.43

// query: GCTTACGGGTCAAAGGTCATAGCATGAATAGAAT
12.9

// query: GATATAGGGTCAGCTAGAGGCCAGAGTATGGAAA
1.25

// query: TCTCGGAGGACACTAAAGGTCAGAGCTCGACATC
2.78

// query: TCTGCTAGGTCATCGATGGTCAGCTAATCTGCTA
1.82

// query: CGAACGAGGTCAAAGGACAGTGAAAGGCGACGTA
5.48

// query: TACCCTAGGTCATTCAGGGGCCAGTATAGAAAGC
0.859

###

# System: FXR:RXRa (NR concentration 270 nM, RXRa partner concentration 90 nM)
# assay.method.text: PBM binding z-score (relative to random genomic background probes); higher = stronger binding; sequences stand for … in GC…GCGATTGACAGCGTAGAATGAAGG
Entries and their PBM binding z-score
The answer should be a number; do not append a unit.

// below: answered sequences
ATATGTAGGTTAGCTGGGGTCCTTCAGACTAGGC
0.425
ATATGTAGGTTAACTGGGGTCATTCAGACTAGGC
5.59
CGTCCAAGGTCATTGGAGGTCAGTGAAGACAGAT
7.92
TCTTGTAGATCAATAGAAGTTAAGAAAGTGCGCT
0.718
CCTACTGGGTCACGAAAGGTCATTGATTCAGTGA
6.45

# query: PBM binding z-score of entry ACTAGTTGGTCAGCTGAGGTCACACCCAATTCGG
2.83
